# reported Ki; entries follow
- target-entity: PSD-95 PDZ1 (aa 61–151) (UniProt P78352 61-151)
- test-protocol: fluorescence polarisation; competition: 25 nM Cy5-labeled probe and a constant concentration of PDZ protein corresponding to the K d of the probe, twofold dilution series of unlabeled peptide (typically 1–512 µM); 10 mM HEPES pH 7.4, 150 mM NaCl, 1% BSA; room temperature; K i calculated from the IC50
- experimental-conditions: both partners purified
Ends that are not written are not given here.
Give just the numeric value; µM need not be written.

- KYVSYNNLVI-OH (not fully specified) [metabotropic glutamate receptor mGlu7(a) C-tail peptide, human]: 610

As a next step, examine the binder that follows.
stdin: Return Ki for the following binder: RDYKQSSSTL-OH (not fully specified) [metabotropic glutamate receptor mGlu1(a) C-tail peptide, human]
stdout: 830
